Give measured IC50 for each item. Keep answers brief.
# Measured target: UniProt:Q9P0U3
# Sequence (Q9P0U3 1-644): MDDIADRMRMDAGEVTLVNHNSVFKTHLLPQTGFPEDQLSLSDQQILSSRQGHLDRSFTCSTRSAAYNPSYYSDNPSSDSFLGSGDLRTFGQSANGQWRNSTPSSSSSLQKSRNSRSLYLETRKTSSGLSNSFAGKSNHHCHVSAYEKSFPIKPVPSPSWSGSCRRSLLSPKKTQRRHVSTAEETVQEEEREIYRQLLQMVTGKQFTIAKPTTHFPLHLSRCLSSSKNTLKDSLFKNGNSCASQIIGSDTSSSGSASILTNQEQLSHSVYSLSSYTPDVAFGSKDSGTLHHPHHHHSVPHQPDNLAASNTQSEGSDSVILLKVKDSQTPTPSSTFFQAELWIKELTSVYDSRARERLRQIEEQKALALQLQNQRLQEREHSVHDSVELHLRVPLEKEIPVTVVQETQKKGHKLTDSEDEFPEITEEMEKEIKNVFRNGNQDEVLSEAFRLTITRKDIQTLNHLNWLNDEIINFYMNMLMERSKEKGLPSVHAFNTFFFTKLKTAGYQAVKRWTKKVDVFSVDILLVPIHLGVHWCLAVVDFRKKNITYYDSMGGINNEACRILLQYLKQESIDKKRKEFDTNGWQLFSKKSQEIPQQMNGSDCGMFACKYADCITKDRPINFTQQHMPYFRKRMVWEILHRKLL
# Assay info: SENP1 inhibition in IGROV1 cells (SUMOylated JAK2, Western blot)
# Format: cell-based
# Parameters: endogenous in cells; host or cells: IGROV1
# Experimental conditions: incubated 48 hours, read-out: inhibited deSUMOylation of JAK2 with IC50
One number for each entry, in µM.

C[C@H]1[C@H](C)CC[C@]2(C(=O)O)CC[C@]3(C)C(=CC[C@@H]4[C@@]5(C)CC[C@H](O)C(C)(C)[C@@H]5CC[C@]43C)[C@H]12    0.24

Consider now this further compound.
Looking for the measured IC50 of CC1(C)CC[C@]2(C(=O)O)CC[C@]3(C)C(=CC[C@@H]4[C@@]5(C)CC[C@H](O[C@@H]6O[C@H](C(=O)O)[C@@H](O)[C@H](O[C@@H]7OC[C@@H](O)[C@H](O)[C@H]7O)[C@H]6O)C(C)(C)[C@@H]5CC[C@]43C)[C@@H]2C1 , can you help?
31.8
